Target: human Fab of κ-type (Homo sapiens, UniProt P01834+P01857)
Sequence (P01857 with tags, fused parts or gaps, other chains not shown): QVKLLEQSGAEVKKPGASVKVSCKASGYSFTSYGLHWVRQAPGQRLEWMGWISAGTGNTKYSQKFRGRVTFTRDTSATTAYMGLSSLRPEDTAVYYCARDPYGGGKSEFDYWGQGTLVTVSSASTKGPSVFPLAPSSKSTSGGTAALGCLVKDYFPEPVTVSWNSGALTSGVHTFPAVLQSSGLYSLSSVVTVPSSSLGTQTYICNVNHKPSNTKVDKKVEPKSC
Experiment: STD NMR screening (1D saturation transfer difference) for binding to antibody
Parameters: key: 0 no; 1 weak; 2 strong signal
Conditions: 100 nM antibody, 0.5 mM ligand
Where a name gives a salt, the structure may show the parent alone.
As shown below, each of these compounds has a reported NMR signal conc 2 value.
Would you mind answering with just the numeric figure?

// known answers, use as guide
Record COC(=O)C1OC1c1cc(Cl)ccc1OC (centres unmarked) has human Fab of κ-type (Homo sapiens, UniProt P01834+P01857) NMR signal conc 2 equal to 1

Record COC(=O)c1ccc2ccccc2c1O [AB_0001200, methyl 1-hydroxy-2-naphthoate] has human Fab of κ-type (Homo sapiens, UniProt P01834+P01857) NMR signal conc 2 equal to 0

Record Fc1cc(F)cc(Cc2nc(-c3cccs3)no2)c1 has human Fab of κ-type (Homo sapiens, UniProt P01834+P01857) NMR signal conc 2 equal to 0

Record CCn1ccnc1CC1COc2ccccc2O1 (centres unmarked) [AB_0001070, imiloxan hydrochloride] has human Fab of κ-type (Homo sapiens, UniProt P01834+P01857) NMR signal conc 2 equal to 1

Now take the following compound into account.
Record COc1ccc(CC(C)=O)cc1Br has human Fab of κ-type (Homo sapiens, UniProt P01834+P01857) NMR signal conc 2 equal to 2

* * *

Target: human Fab of κ-type (Homo sapiens, UniProt P01834+P01857)
Assay: STD NMR screening (1D saturation transfer difference) for binding to antibody
Design: key: 0 no; 1 weak; 2 strong signal
Conditions: 500 nM antibody, 0.5 mM ligand, 298 K
Structures can show the parent of a compound that is named as a salt.
Assay endpoint: NMR signal conc 1
Would you mind answering with just the numeric figure?

The recorded NMR signal conc 1 for entry CSCCNC(=O)c1nc2ccccc2c(=O)n1N [AB_0001130] equals 0

The recorded NMR signal conc 1 for entry S=C(Oc1ccccn1)c1csc(C2COc3ccccc3O2)n1 (stereo not drawn) [AB_0001260] equals 0

New cases:
The recorded NMR signal conc 1 for entry CCn1ccnc1CC1COc2ccccc2O1 (stereo not drawn) [AB_0001070, imiloxan hydrochloride] equals 1

The recorded NMR signal conc 1 for entry O=C1SC(Br)C(=O)N1c1ccccc1 (stereo not drawn) [AB_0000880, 5-bromo-3-phenyl-thiazolidine-2,4-dione] equals 0

The recorded NMR signal conc 1 for entry O=C1c2ccncc2C(=O)N1c1ccc(Cl)cc1 [AB_0000610] equals 0

The recorded NMR signal conc 1 for entry O=C1CN(c2ccccc2)C(=O)N1c1ccccc1 [AB_0000860, 1,3-diphenylimidazolidine-2,4-dione] equals 2

The recorded NMR signal conc 1 for entry N=c1sccn1CC(=O)c1ccc2ccccc2c1 [AB_0001060] equals 2

The recorded NMR signal conc 1 for entry c1ccc(-c2nnc3ccccc3n2)cc1 [AB_0000600, 3-phenyl-1,2,4-benzotriazine] equals 1

The recorded NMR signal conc 1 for entry O=C(c1ccc2ccccc2c1)n1ccnc1 [AB_0000900, 1-(2-naphthoyl)imidazole] equals 0

* * *

As shown below, each of these compounds has a reported NMR signal conc 1 value.
Biological target: human Fab of κ-type (Homo sapiens, UniProt P01834+P01857)
Experiment: STD NMR screening (1D saturation transfer difference) for binding to antibody
Parameters: key: 0 no; 1 weak; 2 strong signal
Details: 500 nM antibody, 0.5 mM ligand, 298 K
Would you mind answering with just the numeric figure?

The recorded NMR signal conc 1 for entry CC(C)=CC1=C(O)C(=O)c2ccccc2C1=O equals 1

The recorded NMR signal conc 1 for entry O=C1C(=O)N(c2ccccc2)C(=O)N1c1ccccc1 equals 0

The recorded NMR signal conc 1 for entry Clc1ccc(COn2ccnc2)cc1Cl [AB_0001150, 1-[(3,4-dichlorobenzyl)oxy]-1h-imidazole] equals 2

The recorded NMR signal conc 1 for entry CC1=NN(c2cccc(Cl)c2)C(=O)C1 equals 0

The recorded NMR signal conc 1 for entry COC(=O)c1ccc2ccccc2c1O [AB_0001200, methyl 1-hydroxy-2-naphthoate] equals 1

* * *

As shown below, each of these compounds has a reported NMR signal conc 3 value.
Molecular target: human Fab of κ-type (Homo sapiens, UniProt P01834+P01857)
Experiment: STD NMR screening (1D saturation transfer difference) for binding to antibody
Set-up: key: 0 no; 1 weak; 2 strong signal
Details: 20 nM antibody, 0.5 mM ligand

// known answers, use as guide
The recorded NMR signal conc 3 for entry CN(C)C(=O)N(C)c1ccc(Cl)c(Cl)c1 [AB_0001250] equals 1

The recorded NMR signal conc 3 for entry N#CCc1ccc(C(=O)c2ccccc2F)s1 [AB_0001010] equals 2

The recorded NMR signal conc 3 for entry O=C1CN(c2ccccc2)C(=O)N1c1ccccc1 [AB_0000860, 1,3-diphenylimidazolidine-2,4-dione] equals 1

New cases:
The recorded NMR signal conc 3 for entry COc1ccc(CC(C)=O)cc1Br [AB_0000910, 3-bromo-4-methoxyphenylacetone] equals 0

* * *

Biological target: human Fab of κ-type (Homo sapiens, UniProt P01834+P01857)
Assay: STD NMR screening (1D saturation transfer difference) for binding to antibody
Set-up: key: 0 no; 1 weak; 2 strong signal
Conditions: 500 nM antibody, 0.5 mM ligand, 298 K
Assay endpoint: NMR signal conc 1
Would you mind answering with just the numeric figure?

The recorded NMR signal conc 1 for entry O=C(O)c1ccnn(-c2ccccc2)c1=O equals 0

The recorded NMR signal conc 1 for entry O=C1C=C(Cl)C(=O)N1c1ccccc1 equals 0

The recorded NMR signal conc 1 for entry CC1(C)CC(=O)c2sc(NC(=O)c3cccnc3)nc2C1 equals 0

The recorded NMR signal conc 1 for entry CCOC(=O)c1c[nH]c2ccccc2c1=O equals 0

The recorded NMR signal conc 1 for entry COC(=O)NC(=O)c1nc(-c2ccccc2)c(C)o1 equals 2

The recorded NMR signal conc 1 for entry O=C(Cc1ncon1)Nc1ccc(F)c(F)c1F equals 0

New cases:
The recorded NMR signal conc 1 for entry c1ccc(-c2nnc(-c3ccccn3)nn2)nc1 equals 0

The recorded NMR signal conc 1 for entry O=C(Nc1ccc(F)cc1)Oc1noc(-c2ccccc2)n1 equals 0

The recorded NMR signal conc 1 for entry O=Cc1cccc(C(F)(F)F)c1Cl equals 1

* * *

Target: human Fab of κ-type (Homo sapiens, UniProt P01834+P01857)
Assay: STD NMR screening (1D saturation transfer difference) for binding to antibody
Parameters: key: 0 no; 1 weak; 2 strong signal
Settings: 100 nM antibody, 0.5 mM ligand
Experimental: All NMR experiments were performed at 298 K on a Bruker Avance 500 MHz spectrometer. […] The samples thus consisted of 0.5 mM ligand, 20 mM phosphate buffer, 100 mM NaCl and […] in D2O at pD 7.5, uncorrected reading on pH-meter. Compounds were initially tested for binding with 0.5 μM antibody. […] The analysis was setup for automation so that several samples could be analysed over night (usually 10-15 samples/night). […]
As shown below, each of these compounds has a reported NMR signal conc 2 value.
Would you mind answering with just the numeric figure?

// known answers, use as guide
The recorded NMR signal conc 2 for entry c1ccc(CCn2cc(-c3ccncc3)cn2)cc1 [AB_0001190] equals 0

The recorded NMR signal conc 2 for entry O=Cc1cccc(C(F)(F)F)c1Cl [AB_0001030, 2-chloro-3-(trifluoromethyl)benzaldehyde] equals 0

The recorded NMR signal conc 2 for entry c1ccc(-c2nnc3ccccc3n2)cc1 [AB_0000600, 3-phenyl-1,2,4-benzotriazine] equals 1

The recorded NMR signal conc 2 for entry N=c1sccn1CC(=O)c1ccc2ccccc2c1 [AB_0001060] equals 0

New cases:
The recorded NMR signal conc 2 for entry Sc1nnc(-c2csc(-c3ccccc3)n2)o1 [AB_0000760] equals 0

* * *

As shown below, each of these compounds has a reported NMR signal conc 1 value.
Target: human Fab of κ-type (Homo sapiens, UniProt P01834+P01857)
Assay: STD NMR screening (1D saturation transfer difference) for binding to antibody
Set-up: key: 0 no; 1 weak; 2 strong signal
Details: 500 nM antibody, 0.5 mM ligand, 298 K

// known answers, use as guide
The recorded NMR signal conc 1 for entry OCC(Oc1ccccc1)c1ccccc1 (centres unmarked) [AB_0000810, 2-phenoxy-2-phenyl-1-ethanol] equals 2

The recorded NMR signal conc 1 for entry FC(F)(F)c1cccc(-n2ccnc2)c1 [AB_0001220, 1-(3-trifluoromethylphenyl)imidazole] equals 2

The recorded NMR signal conc 1 for entry COc1ccc(CC(C)=O)cc1Br [AB_0000910, 3-bromo-4-methoxyphenylacetone] equals 2

The recorded NMR signal conc 1 for entry O=C(c1ccccn1)C(O)c1ccccn1 (stereo not drawn) [AB_0000510, alpha-pyridoin] equals 0

The recorded NMR signal conc 1 for entry O=C(c1cccs1)c1cnc2ccccn2c1=O [AB_0001300] equals 1

New cases:
The recorded NMR signal conc 1 for entry OC(CNCc1ccc(Cl)cc1Cl)C(F)(F)F (centres unmarked) [AB_0001170] equals 0

The recorded NMR signal conc 1 for entry N#CCc1ccc(C(=O)c2ccccc2F)s1 [AB_0001010] equals 2

The recorded NMR signal conc 1 for entry CN(C)C(=O)N(C)c1ccc(Cl)c(Cl)c1 [AB_0001250] equals 2

The recorded NMR signal conc 1 for entry OC(CNCc1ccc(Cl)cc1)CSc1ccccc1 (centres unmarked) [AB_0001270] equals 1

The recorded NMR signal conc 1 for entry O=C(CC1OC(=O)c2ccccc21)c1ccccn1 (centres unmarked) [AB_0000790] equals 0

The recorded NMR signal conc 1 for entry COC(=O)C1OC1c1cc(Cl)ccc1OC (centres unmarked) [AB_0001240] equals 1

The recorded NMR signal conc 1 for entry CCCCc1c(O)nc2ccccn2c1=O [AB_0000990] equals 0
